Tested on: T-cell
Protocol details: Ability of compound to inhibit the T-cell adhesion at 200 uM in cell adhesion assay
Format: functional, Homo sapiens
Quick reference: T-cell binding of the listed items.
Dear colleague, please return just the value in %, with no unit written.

These solved cases illustrate the format of a correct answer.
[[record]]
substance = "H-PSKVIL-OH"
quantitative_result = 44

[[record]]
substance = "H-AILPRG-OH"
quantitative_result = 53

[[record]]
substance = "H-VILPRA-OH"
quantitative_result = 68

[[record]]
substance = "H-VILPRG-OH"
quantitative_result = 32

[[record]]
substance = "H-ILPRGG-OH"
quantitative_result = 46


Summary for this substance, "H-VILARG-OH" : T-cell binding is 62

Summary for this substance, "H-LPRGGS-OH" : T-cell binding is 37

Summary for this substance, "H-VALPRG-OH" : T-cell binding is 71

Summary for this substance, "H-PRGGSV-OH" : T-cell binding is 25

Summary for this substance, "H-KVILPR-OH" : T-cell binding is 49

Summary for this substance, "H-VIAPRG-OH" : T-cell binding is 46
